B1: KRT71 (parent)
chain: FGSRSLYSLGGVRSLNVASGSGKS

Variants of: B1
Assay: protein stability index of a GFP-peptide fusion (GPS, HEK-293T) (PSI 1-6); higher = more stable;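 further: lentivirally expressed fusions sorted by FACS into six bins by GFP to DsRed ratio, PSI derived from sequencing read proportions per bin multiplied by bin number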
Conditions: c terminus: a fixed tail appended

{"MUTANT_DESIGNATION": "N16P", "protein stability index": 2.04}
{"MUTANT_DESIGNATION": "G10P", "protein stability index": 2.03}
{"MUTANT_DESIGNATION": "R4T", "protein stability index": 2}
{"MUTANT_DESIGNATION": "K23E", "protein stability index": 2.03}
{"MUTANT_DESIGNATION": "S5N", "protein stability index": 1.99}
